Target: DNA repair and recombination protein RAD54-like (Homo sapiens, UniProt Q92698)
Sequence (Q92698 whole entry): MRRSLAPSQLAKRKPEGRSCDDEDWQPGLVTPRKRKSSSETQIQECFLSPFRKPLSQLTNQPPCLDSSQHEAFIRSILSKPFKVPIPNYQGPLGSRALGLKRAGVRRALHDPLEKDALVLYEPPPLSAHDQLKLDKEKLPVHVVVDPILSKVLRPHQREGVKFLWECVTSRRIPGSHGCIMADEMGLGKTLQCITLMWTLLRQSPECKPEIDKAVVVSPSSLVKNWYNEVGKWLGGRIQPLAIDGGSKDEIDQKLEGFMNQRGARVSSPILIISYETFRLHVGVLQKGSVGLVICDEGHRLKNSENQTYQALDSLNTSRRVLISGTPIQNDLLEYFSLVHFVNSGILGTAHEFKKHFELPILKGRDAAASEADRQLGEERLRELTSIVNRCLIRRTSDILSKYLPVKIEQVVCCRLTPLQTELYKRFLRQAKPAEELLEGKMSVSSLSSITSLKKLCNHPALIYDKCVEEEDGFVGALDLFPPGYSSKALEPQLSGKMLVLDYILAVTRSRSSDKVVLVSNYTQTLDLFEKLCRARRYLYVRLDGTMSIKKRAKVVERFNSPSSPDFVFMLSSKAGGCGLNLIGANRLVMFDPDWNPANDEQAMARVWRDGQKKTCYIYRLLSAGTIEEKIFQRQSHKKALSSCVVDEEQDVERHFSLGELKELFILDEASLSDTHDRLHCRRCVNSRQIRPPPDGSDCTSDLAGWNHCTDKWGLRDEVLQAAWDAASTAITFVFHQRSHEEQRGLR
Assay: inhibitors of human RAD54 branch migration, confirmation, biochemical, fluorescence, cherry-picked samples, dose series (AID 651657)
Assay type: functional
The source made the active and inactive calls.
Measurement type: AC50

| Molecule | Recorded value |
| --- | --- |
| CC(CCCN1CCCC1)Nc1ccnc2cc(Cl)ccc12 (stereo not given) | 35.7 µM (active) |
| COc1ccc(C(=O)Nc2ccc3nc(N4CCN(C)CC4)cc(C)c3c2)c(OC)c1 | 32.9 µM (active) |
| Nc1cccc2nc3ccccc3cc12 | 4.75 µM (active) |
| CN(C)CCc1cc2c(c3c1ccc1ccccc13)OCO2 | 4.76 µM (active) |

Shift focus to the following entry.
## Input // lookup AC50 for COc1ccc(C)c2sc(N(CCN(C)C)C(=O)c3ccc4ccccc4c3)nc12
## Output 79.4 µM (active)

---

Target: UniProt Q9Y2T6
Sequence (Q9Y2T6 whole entry): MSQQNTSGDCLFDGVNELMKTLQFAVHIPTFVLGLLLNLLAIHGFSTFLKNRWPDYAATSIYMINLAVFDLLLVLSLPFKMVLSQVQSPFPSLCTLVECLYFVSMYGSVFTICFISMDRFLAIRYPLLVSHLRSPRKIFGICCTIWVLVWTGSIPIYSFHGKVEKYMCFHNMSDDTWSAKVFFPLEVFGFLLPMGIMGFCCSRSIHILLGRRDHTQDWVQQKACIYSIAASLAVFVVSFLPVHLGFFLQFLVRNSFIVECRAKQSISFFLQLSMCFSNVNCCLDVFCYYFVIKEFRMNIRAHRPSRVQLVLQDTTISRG
Assay: GPR55 agonists via beta-arrestin recruitment, primary screen, imaging, U2OS cells, beta-arrestin-GFP redistribution (AID 1961)
Format: functional
The source made the active and inactive calls.
Lab note: assign the record to one of active, inactive

Solved cases below.
| Molecule | Class |
| --- | --- |
| CC(C)C[C@@H](CSc1ccccc1)N1CCN(CCc2ccccc2)CCC1=O | active |
| Oc1c(Cl)cc(Cl)cc1/C=N/c1ccccc1N1CCCC1 | inactive |
| CCOC(=O)N1CCC(N(CCOC)C(=O)Nc2ccc(Cl)c(Cl)c2)CC1 | active |

Now look at this entry.
## Input // return assay outcome for CCN(CC)C(=O)CC(c1ccc(N(C)C)cc1)c1c(OC)cc(OC)c2c(-c3ccccc3)cc(=O)oc12 (centres undefined)
## Output active

---

Target: Corticotropin-releasing factor receptor 2/Corticotropin-releasing factor-binding protein (Homo sapiens, UniProt P24387+Q13324)
Sequence (Q13324 whole entry): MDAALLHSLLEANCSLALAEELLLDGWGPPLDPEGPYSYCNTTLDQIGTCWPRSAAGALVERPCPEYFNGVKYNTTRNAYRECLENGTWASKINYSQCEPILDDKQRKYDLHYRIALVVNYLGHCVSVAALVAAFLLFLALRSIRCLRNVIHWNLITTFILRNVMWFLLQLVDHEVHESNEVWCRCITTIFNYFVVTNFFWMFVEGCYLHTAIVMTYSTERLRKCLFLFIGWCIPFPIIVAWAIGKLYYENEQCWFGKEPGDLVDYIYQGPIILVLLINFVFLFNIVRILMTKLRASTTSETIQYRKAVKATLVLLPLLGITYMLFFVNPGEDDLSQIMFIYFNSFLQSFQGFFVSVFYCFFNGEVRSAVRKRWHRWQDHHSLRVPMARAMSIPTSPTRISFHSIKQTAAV
Sequence (P24387 whole entry): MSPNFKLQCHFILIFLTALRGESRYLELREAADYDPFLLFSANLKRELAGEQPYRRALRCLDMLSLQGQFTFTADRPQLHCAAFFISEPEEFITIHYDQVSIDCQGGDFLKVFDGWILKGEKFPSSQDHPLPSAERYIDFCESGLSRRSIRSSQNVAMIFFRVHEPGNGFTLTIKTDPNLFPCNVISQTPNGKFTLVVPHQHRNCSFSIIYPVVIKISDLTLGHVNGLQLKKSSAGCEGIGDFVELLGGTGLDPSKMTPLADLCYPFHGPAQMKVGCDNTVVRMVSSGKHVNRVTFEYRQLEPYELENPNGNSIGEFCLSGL
Assay: activators of CRF receptor 2 with binding protein – uHTS hits, confirmation (AID 602473)
Assay type: functional
Conditions: read-out: EC50_Mean
The source made the active and inactive calls.
Lab note: assign the record to one of y = active, n = inactive

| Compound | Class |
| --- | --- |
| COc1ccc(NC2CCCN(C(=O)c3cccc(C)n3)C2)cc1OC (stereo not given) | n |
| COc1ccc(NC(=O)c2c(F)cccc2F)cc1S(=O)(=O)Nc1ccc(Br)cc1 | n |
| C(=Cc1cnc2ccccc2n1)c1ccc2c(c1)OCO2 | n |

## Input // return assay outcome for CCOC(=O)c1sc(NC(=O)CSc2n[nH]c(-c3ccncc3)n2)c(C#N)c1C
## Output y

## Input // return assay outcome for CC(C)Sc1snnc1-c1ccccc1
## Output n

---

Molecular target: Heat shock factor protein 1 (Mus musculus, UniProt P38532)
Sequence (P38532 whole entry): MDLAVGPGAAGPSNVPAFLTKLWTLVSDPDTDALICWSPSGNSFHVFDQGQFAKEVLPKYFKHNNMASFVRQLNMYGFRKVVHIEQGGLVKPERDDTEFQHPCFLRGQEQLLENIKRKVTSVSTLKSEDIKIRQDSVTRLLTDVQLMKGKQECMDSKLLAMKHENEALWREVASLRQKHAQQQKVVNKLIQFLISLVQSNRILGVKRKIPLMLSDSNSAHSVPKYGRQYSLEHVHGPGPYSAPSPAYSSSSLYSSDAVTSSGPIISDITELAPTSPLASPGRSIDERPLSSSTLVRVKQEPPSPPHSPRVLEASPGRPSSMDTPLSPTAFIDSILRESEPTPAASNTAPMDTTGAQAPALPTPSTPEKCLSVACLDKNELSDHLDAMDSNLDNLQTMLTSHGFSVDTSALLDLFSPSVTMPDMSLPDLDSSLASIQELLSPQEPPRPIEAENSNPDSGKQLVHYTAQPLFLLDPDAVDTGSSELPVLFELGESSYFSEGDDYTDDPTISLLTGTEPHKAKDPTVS
Test: inhibition of MG132-induced HSE-luciferase signal, confirmation, cell-based, NIH3T3, luminescence, dose retest (AID 2382);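 also: NIH3T3 fibroblasts with HSF1-driven luciferase reporter stressed by proteasome inhibitor MG132; luminescence from HSF1-driven luciferase expression after 8 hours of MG132 stress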
Assay type: functional
Calls of active or inactive are those of the source.
Measurement type: EC50

| Compound | Experimental target | EC50 |
| --- | --- | --- |
| COc1ccc(N(Cc2cc3cc(OC)ccc3[nH]c2=O)S(=O)(=O)c2ccc(NC(C)=O)cc2)cc1 | Heat shock factor protein 1 (Mus musculus, UniProt P38532) | 0.309 µM (active) |

## Input // lookup EC50 for CCN1CCN(CCNC(=O)CCCCCn2c(=O)[nH]c3cc(C(=O)OC)ccc3c2=O)CC1
## Output > 195 µM (not active)

## Input // lookup EC50 for Cc1cc(C(F)(F)F)nc(SCc2ccc(C(=O)O)o2)n1
## Output > 195 µM (not active)

## Input // lookup EC50 for Cc1ccc(C(=O)N/C(=C\c2ccc(Br)cc2)c2n[nH]c(S)n2)cc1
## Output > 195 µM (not active)

## Input // lookup EC50 for CCC(C)(NC(=O)c1ccccc1)C(=O)O (stereo not given)
## Output > 195 µM (not active)
